Listed next: entries and their corresponding apparent KD of MS2 coat protein.
# Tested on: MS2 coat protein
# assayDetails: apparent KD of MS2 coat protein; designed switch direction (-1 OFF switch, 1 ON switch): 1; higher = weaker reporter binding
# conditionsUsed: Eterna round: R95; input ligand: microRNA oligo, concentration not stated
Give the value in nM but do not write nM after it.

Worked examples, 4 sequences total:
{"columns": ["biopolymerSequence", "dataValue"],
 "data": [
  ["UGUUAACAUGAGGAUCACCCAUGUCAAAUGAAUCGAGGAUAUGGAAAGUAAUAAGAUGAACUAGAAGGCGAAGUUG [Altered State 1-18 - Jieux - Same State 1] (puzzle: Same State 1)", 87.9],
  ["AGUCCAGCCUGAGCUGGACAAAAGCAUGUACAUGAGGAUCACCCAUGUCGUGUACAAGCUUUUUGCUCGUCUUAAAA [Zipper 46 - 5] (puzzle: Sensor for hsa-mir-208a)", 12.4],
  ["AGGGAGGAAGCUGAGGAUAUCGUAGGGAGGACAUGAGGAUCACCCAUGUGUAUAGAAUUGGAGGACGAGAAGGCAGAGGAGUGGG [JR_SS2_Sub051] (puzzle: Same State 2)", 58.5],
  ["GGUCCAGCCUGAGCUGGACAAAAGCAUGUACAUGAGGAUCACCCAUGUUCAUGUACAAGCUUUUUGCUCGUCUUAAA [salish99_208a_r3_035] (puzzle: Sensor for hsa-mir-208a)", 14.7]
]}

Reported apparent KD of MS2 coat protein for AAGAGAGGAAGCGAGGAUAUCGUGGGAGGGACAUGAGGAUCACCCAUGUAGGAUGUAGAGAGGAACGAGAAGGCGCAGGAAAGAA [JR_SS2_Sub073] (puzzle: Same State 2) was 67.7
